Test system: Rattus norvegicus
Assay: Antihypertensive activity as fall in systolic blood pressure after 5 hr of 10 uM/kg po dosing in Spontaneously hypertensive rats.
Assay type: functional, Artery
ENDPOINT LABEL: Decrease in SBP

Example results:
Write down Decrease in SBP measured for item COc1cc2nc(N3CCN(C(=O)c4ccco4)CC3)nc(N)c2cc1OC
34 mmHg

Write down Decrease in SBP measured for item COc1cc2nc(N3CCC(C(=O)N4CCCCCCC4)CC3)nc(N)c2cc1OC.Cl
26 mmHg

Write down Decrease in SBP measured for item COc1cc2nc(N3CCC(C(=O)C4CCCCC4)CC3)nc(N)c2cc1OC.Cl
51 mmHg

Write down Decrease in SBP measured for item CCCCC(=O)C1CCN(c2nc(N)c3cc(OC)c(OC)cc3n2)CC1.Cl
27 mmHg

Write down Decrease in SBP measured for item COc1cc2nc(N3CCC(C(=O)C4CCCC4)CC3)nc(N)c2cc1OC.Cl
50 mmHg

Next item in the queue.
Write down Decrease in SBP measured for item COc1cc2nc(N3CCC(C(O)C4CCCCC4)CC3)nc(N)c2cc1OC.Cl (stereo unspecified)
38 mmHg

---

System: Rattus norvegicus
Test: Hypotensive activity in anesthetized rats, dose that produced a 30% fall in mean blood pressure after 30 minutes
Assay type: functional
ENDPOINT LABEL: ED30
I'd appreciate it if you wrote the number followed by its unit.

Write down ED30 measured for item COc1cc2nc(N3CCC(C(=O)N4CCCCC4)CC3)nc(N)c2cc1OC.Cl
0.08 µM/kg

I have 4 molecules here; please give me ED30 for each one.
1. COc1cc2nc(N3CCC(C(=O)C4CCCCC4)CC3)nc(N)c2cc1OC.Cl
2. COc1cc2nc(N3CCC(C(=O)C4CCCC4)CC3)nc(N)c2cc1OC.Cl
3. COc1cc2nc(N3CCC(C(=O)N4CCCC4)CC3)nc(N)c2cc1OC.Cl
4. COc1cc2nc(N3CCCC(C(=O)N4CCCC4)C3)nc(N)c2cc1OC.Cl (stereo in doubt; 6i)

0.1 µM/kg
0.09 µM/kg
0.4 µM/kg
30 µM/kg

---

Can you tell me ED30 for the items I'm about to list?
Tested on: Rattus norvegicus
Assay: Hypotensive activity in anesthetized rats, dose that produced a 30% fall in mean blood pressure after 30 minutes
Assay type: functional
I'd appreciate it if you wrote the number followed by its unit.

Example results:
Write down ED30 measured for item COc1cc2nc(N3CCC(C(O)C4CCCCC4)CC3)nc(N)c2cc1OC.Cl (stereo unspecified)
0.1 µM/kg

Write down ED30 measured for item COc1cc2nc(N3CCCC(C(=O)N4CCCC4)C3)nc(N)c2cc1OC.Cl (stereo in doubt; 6ii)
15 µM/kg

Write down ED30 measured for item CCOC(=O)C1CCCN(c2nc(N)c3cc(OC)c(OC)cc3n2)C1.Cl (stereo in doubt; 6c)
20 µM/kg

I have 4 compounds here; please give me ED30 for each one.
1. CCCCC(=O)C1CCN(c2nc(N)c3cc(OC)c(OC)cc3n2)CC1.Cl
2. COc1cc2nc(N3CCC(C(=O)N4C(C)CCCC4C)CC3)nc(N)c2cc1OC.Cl (stereo unspecified)
3. COc1cc2nc(N3CCC(C(O)C4CCCC4)CC3)nc(N)c2cc1OC.Cl (stereo unspecified)
4. COc1cc2nc(N3CCC(C(=O)N4CCCCCCC4)CC3)nc(N)c2cc1OC.Cl

0.06 µM/kg
0.2 µM/kg
0.7 µM/kg
0.05 µM/kg

I have 4 compounds here; please give me ED30 for each one.
1. COc1cc2nc(N3CCC(C(=O)c4cccs4)CC3)nc(N)c2cc1OC.Cl
2. COc1cc2nc(N3CCC(C(=O)N4CCC4)CC3)nc(N)c2cc1OC.Cl
3. COc1cc2nc(N3CCC(C(=O)OCC(C)(C)C)CC3)nc(N)c2cc1OC.Cl
4. COc1cc2nc(N3CCC(C(=O)N4C(C)CCC4C)CC3)nc(N)c2cc1OC.Cl (stereo unspecified)

1: 6 µM/kg; 2: 0.4 µM/kg; 3: 2 µM/kg; 4: 0.2 µM/kg

I have 7 compounds here; please give me ED30 for each one.
1. COc1cc2nc(N3CCC(C(N)=O)CC3)nc(N)c2cc1OC.Cl
2. COc1cc2nc(N3CCC(C(=O)N4CCCCCC4)CC3)nc(N)c2cc1OC.Cl
3. COc1cc2nc(N3CCC(C(=O)NC(C)(C)C)CC3)nc(N)c2cc1OC.Cl
4. CCCCC(O)C1CCN(c2nc(N)c3cc(OC)c(OC)cc3n2)CC1.Cl (stereo unspecified)
5. COc1cc2nc(N3CCC(Cc4ccccc4)CC3)nc(N)c2cc1OC.Cl
6. COc1cc2nc(N3CCC(C(C)O)CC3)nc(N)c2cc1OC.Cl (stereo unspecified)
7. COc1cc2nc(N3CCC(C(=O)N4CCCCC4C)CC3)nc(N)c2cc1OC.Cl (stereo unspecified)

0.8 µM/kg
0.05 µM/kg
1 µM/kg
0.7 µM/kg
0.07 µM/kg
0.7 µM/kg
0.9 µM/kg
